- test-name: self-splicing fitness, log relative to wild type (ln ratio); higher = more splicing; Tetrahymena group I intron in knt gene, E. coli kanamycin selection, DiMSum; sequences stand for … in CUCUCU…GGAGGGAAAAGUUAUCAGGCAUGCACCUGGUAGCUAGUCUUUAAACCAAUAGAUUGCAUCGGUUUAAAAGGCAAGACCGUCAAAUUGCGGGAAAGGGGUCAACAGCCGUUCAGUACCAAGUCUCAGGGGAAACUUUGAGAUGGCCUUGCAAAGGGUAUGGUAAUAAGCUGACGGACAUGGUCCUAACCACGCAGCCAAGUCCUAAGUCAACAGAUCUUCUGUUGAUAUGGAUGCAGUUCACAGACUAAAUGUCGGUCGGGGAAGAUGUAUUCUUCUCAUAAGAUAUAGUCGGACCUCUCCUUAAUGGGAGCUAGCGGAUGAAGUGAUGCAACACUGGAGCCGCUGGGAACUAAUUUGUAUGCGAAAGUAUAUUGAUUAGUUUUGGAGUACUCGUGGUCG;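 further: selection with 25 µg/mL kanamycin versus none on LB agar overnight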
- run-conditions: 30 °C

residue-string: AGACAGCAAUAUUACGACUC
self-splicing fitness (ln): -2.28

residue-string: UACGAGCAAUAUUACGGCUA
self-splicing fitness (ln): 0.411

residue-string: ACGGAGCAAUAUUACGAUUU
self-splicing fitness (ln): -2.33

residue-string: ACAAAGCAAUAUUACGACCU
self-splicing fitness (ln): 0.0994

residue-string: CUGGAGCAAUAUUACGAGUG
self-splicing fitness (ln): -1.26

residue-string: AUACAGCAAUAUUACGCAUC
self-splicing fitness (ln): -3.69

residue-string: CCGCAGCAAUAUUACGUCCG
self-splicing fitness (ln): -0.393

residue-string: GAUUAGCAAUAUUACGUCUC
self-splicing fitness (ln): -1.24

residue-string: GACCAGCAAUAUUACGUUGU
self-splicing fitness (ln): -1.11

residue-string: AGAAAGCAAUAUUACGCGAA
self-splicing fitness (ln): -1.95

residue-string: AGAGAGCAAUAUUACGAAGG
self-splicing fitness (ln): -3.13

residue-string: UACAAGCAAUAUUACGAUUA
self-splicing fitness (ln): -0.0989

residue-string: AGACAGCAAUAUUACGUAGA
self-splicing fitness (ln): -2.6

residue-string: CGCUAGCAAUAUUACGAACC
self-splicing fitness (ln): -2.92
